# Test system: Bloodstream form of Trypanosoma brucei, strain Lister 427
# procedure-text: Trypanosoma brucei growth inhibition assay (CellTiter-Glo, 24 h)
# Assay type: cell-based
# condition-set: Trypanosoma brucei; T. Brucei Growth Inibition Assay, class symbols; read-out: T. Brucei GI EC50
pEC50: −log10 of the molar value.
readout-label: pEC50

Some solved cases for reference:
1) COc1ccc2nc(C(F)(F)F)n(CC(=O)N3CCN(Cc4ccn(C)n4)CCC3c3ncc(-c4cc5ccccc5nc4OC)[nH]3)c2c1 (stereo not shown)
> 7.00
2) COc1nc2ccccc2cc1-c1cnc(C2CN(CC3CCOC3)CCN2C(=O)Cc2c(C)[nH]c3ccccc23)[nH]1 (stereo not shown)
6.30 to 7.00
3) CCC(=O)CCCN1CCN(Cc2ccccc2)C(c2ncc(-c3ccc4ccccc4c3)[nH]2)C1 (stereo not shown)
5.30 to 6.00
4) COc1ccc2nc(O)cc(C(=O)N3CCN(CC4CCOC4)CC3c3ncc(-c4cc5ccccc5nc4OC)[nH]3)c2c1 (stereo not shown)
5.30 to 6.00
5) CCC(=O)CCCN1CCN(C(=O)Cc2c(C)[nH]c3ccc(OC)cc23)C(c2ncc(-c3cc4ccccc4nc3OC)o2)C1 (stereo not shown)
5.30 to 6.00
6) COc1nc2ccccc2cc1-c1cnc(C2CN(CC3CCOC3)CCN2C(=O)Cc2noc3ccccc23)[nH]1 (stereo not shown)
6.00 to 6.29
7) COc1ccc2nc(C(F)(F)F)n(CC(=O)N3CCN(Cc4cocn4)CCC3c3ncc(-c4cc5ccccc5nc4OC)[nH]3)c2c1 (stereo not shown)
> 7.00
8) Cc1csc(CC(=O)N2CCN(CCc3ccccc3)CC2c2ncc(-c3ccc4ccccc4c3)[nH]2)n1 (stereo not shown)
5.30 to 6.00
9) CN1CCN(C(=O)Cc2c[nH]c3ncccc23)C(c2ncc(-c3ccc4ccccc4c3)[nH]2)C1 (stereo not shown)
5.30 to 6.00
10) CCC(=O)CCCN1CCN(C(=O)Nc2ccccc2)C(c2ncc(-c3ccc4ccccc4c3)[nH]2)C1 (stereo not shown)
5.30 to 6.00

Shifting focus to the compound that follows.
response.value for COc1ccc2nc(C(F)(F)F)n(CC(=O)N3CC[C@H](NCc4cnccn4)C[C@H]3c3ncc(-c4cc5ccccc5nc4OC)[nH]3)c2c1 (field: pEC50) = > 7.00

Provenance of the data: patent US10815222B2
